Target: human Kir2.1 (Homo sapiens)
Construct: expressed in transfected cells
Sequence (P63252 1-427): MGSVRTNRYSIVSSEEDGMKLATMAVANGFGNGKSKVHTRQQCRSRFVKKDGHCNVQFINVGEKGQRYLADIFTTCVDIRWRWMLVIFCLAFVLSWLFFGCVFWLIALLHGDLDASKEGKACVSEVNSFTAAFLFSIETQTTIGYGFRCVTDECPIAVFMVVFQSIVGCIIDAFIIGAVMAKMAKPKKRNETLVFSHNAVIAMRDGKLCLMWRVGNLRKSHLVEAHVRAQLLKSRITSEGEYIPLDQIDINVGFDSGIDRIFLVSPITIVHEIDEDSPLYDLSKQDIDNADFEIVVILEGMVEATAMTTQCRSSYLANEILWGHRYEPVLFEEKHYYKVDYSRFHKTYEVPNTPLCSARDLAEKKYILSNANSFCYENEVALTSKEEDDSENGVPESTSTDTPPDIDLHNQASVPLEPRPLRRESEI
Test: Kir2.1 thallium flux assay
Format: cell-based
Conditions: T-REx-HEK-293 cells expressing human Kir2.1; 4PL fit; top concentration 30 μM
measure: Thallium Flux Potency IC50

compound="c1ccc2c(c1)CN(Cc1cccc3ccccc13)CCO2 [Compound 3h]" measure="Thallium Flux Potency IC50" test_value=inactive
compound="COc1ccc(CNCc2ccc(N3CCOCC3)cc2)cc1 [Compound 5y]" measure="Thallium Flux Potency IC50" test_value=inactive
compound="O=C1CCCN1c1ccc(CNCc2cccc3ccccc23)cc1 [Compound 3d]" measure="Thallium Flux Potency IC50" test_value=inactive
compound="FS(F)(F)(F)(F)c1ccc(CNCc2cccc3ccccc23)cc1 [Compound 3c]" measure="Thallium Flux Potency IC50" test_value=inactive
compound="COCCOc1ccc(CNCc2cccc3ccccc23)cc1 [Compound 3j]" measure="Thallium Flux Potency IC50" test_value=inactive
compound="COc1ccc(CNCc2cccn3ccnc23)cc1 [Compound 5f]" measure="Thallium Flux Potency IC50" test_value=inactive
compound="COc1ccc2c(c1)CCN(Cc1cccc3ccccc13)C2 [Compound 3g]" measure="Thallium Flux Potency IC50" test_value=inactive
compound="COc1ccc(CNCc2nccc3ccccc23)cc1 [Compound 5a]" measure="Thallium Flux Potency IC50" test_value=inactive

// for each compound below, give its Thallium Flux Potency IC50
1. OCc1ccc(CNCc2cccc3ccccc23)cc1 [Compound 3f]
2. COc1ccc(CNCc2cccc3ncccc23)cc1 [Compound 5d]
3. CP(C)(=O)c1ccc(CNCc2cccc3ccccc23)cc1 [Compound 3l]
4. COc1ccc(CNCc2ccc(N3CCCCS3(=O)=O)cc2)cc1 [Compound 5z]

*A*
1. inactive
2. inactive
3. inactive
4. inactive
